Reference source: ChEMBL document CHEMBL1201862

Tested on: TK-10
Assay: NCI tumour cell line growth inhibition, 48 h
Calls of active or inactive are those of the source. Cut-off read from the data, not from the text of the source: active = GI50 up to about 1.1 µM and inactive = higher.
recorded_endpoint: GI50

>  <compound>
COC(=O)CCNC(=O)OCc1ccccc1

>  <test_value>
> 100 µM (inactive)

$$$$
>  <compound>
CCOC(=O)C12CCC(=O)N1N(C)c1ncccc1N2 (stereo unspecified)

>  <test_value>
> 100 µM (inactive)

$$$$
>  <compound>
Cc1oc2c(c1C)S(=O)(=O)C(C#N)C(c1ccccc1)N2 (stereo unspecified)

>  <test_value>
> 100 µM (inactive)

$$$$
>  <compound>
S=c1nc(Nc2ccccc2)c2c3c(sc2[nH]1)CCCC3

>  <test_value>
> 100 µM (inactive)

$$$$
>  <compound>
COC(=O)C1=Nc2c(C)nn(-c3ccccc3)c2N=C(c2ccc(C)cc2)C1

>  <test_value>
> 10 µM (inactive)

$$$$
>  <compound>
C[P+](C)(C)C

>  <test_value>
> 100 µM (inactive)

$$$$
>  <compound>
CC(=O)O[C@]12CCCCCCC1C1(O)C(O)CCC[C@H]12 (stereo partly specified)

>  <test_value>
> 100 µM (inactive)

$$$$
>  <compound>
CCCCCCCCCCCC[C@@H](O)[C@H]1CCC([C@H](O)CCCCC(=O)CCCCCCCC2=C[C@H](C)OC2=O)O1 (stereo partly specified)

>  <test_value>
> 50 µM (inactive)

$$$$
>  <compound>
CN(C)CCNC(=O)c1cccc2ccc(-c3cccnc3)nc12

>  <test_value>
2.48 µM (inactive)

$$$$
>  <compound>
COc1ccc(-c2cc3ccccc3[nH]c2=O)cc1OC

>  <test_value>
> 100 µM (inactive)

$$$$
>  <compound>
Nc1nnc2nc(CC(=O)/C=C/c3ccccc3)c(=O)[nH]n12

>  <test_value>
> 100 µM (inactive)

$$$$
